assay: Example 12 cat probe formulation study and pharmacokinetic analysis; assay type: in vivo, cats; settings: cat, serum; Group 2, oral gavage 3 mg/kg; read-out: mean-terminal half-life (converted)
Assay metric: half-life

Specify reported half-life for the compound shown: CN1N=C2CCN(C(=O)[C@@H](COCc3ccccc3)NC(=O)C(C)(C)N)C[C@@]2(Cc2ccccc2)C1=O.O=C(O)C(O)C(O)C(=O)O
1.04 h

###

test: Example 12 cat probe formulation study and pharmacokinetic analysis; format: in vivo, cats; settings: cat, serum; Group 1, intravenous 0.75 mg/kg; read-out: clearance of capromorelin
Assay metric: clearance

Supply reported clearance belonging to this compound: CN1N=C2CCN(C(=O)[C@@H](COCc3ccccc3)NC(=O)C(C)(C)N)C[C@@]2(Cc2ccccc2)C1=O.O=C(O)C(O)C(O)C(=O)O
~30 mL/min/kg

###

Test: Example 12 cat probe formulation study and pharmacokinetic analysis
Format: in vivo, cats
Conditions: cat, serum; Group 2, oral gavage 3 mg/kg
Method: Similar to some of the other pharmacokinetic analyses conducted in dogs and cats, an additional pharmacokinetic study was conducted in cats to assess capromorelin formulations that allow sufficient drug to circulate to produce appetite stimulation and to define the capromorelin pharmacokinetic profile in cats. […] Food consumption was determined daily for all cats. […] Upon removal of feed, the amount consumed was calculated. […]
Assay metric: Cmax (ng/mL)
# unit: ng/mL | format: bare number

# return recorded Cmax for input CN1N=C2CCN(C(=O)[C@@H](COCc3ccccc3)NC(=O)C(C)(C)N)C[C@@]2(Cc2ccccc2)C1=O.O=C(O)C(O)C(O)C(=O)O [capromorelin]
149
